Each entry below carries its recorded growth.
tested on: SK-MEL-2 melanoma; assay: NCI-60 one-dose screen, 48 h (100 = growth as untreated, 0 = no growth, -100 = all killed); conditions: 10 µM unless noted
About 83,000 compounds went through this panel and 20% of them were active in at least one assay; those are over-represented in the sample as a whole.
Please reply with the bare figure in % and do not write the unit itself.

Here's what some known entries look like.
> print(dat)
                                   molecule  metric  endpoint.result
1  COc1ccc(C2C3=C(COC3=O)N(CCO)c3cc4c(cc32)CCC4)cc1 (stereo unspecified)  growth             77.9
2  FC(F)(F)c1cccc(CNC2CCN(CCc3ccccc3)CC2)c1  growth               91
3    Cc1ccc(NC2=CC(=O)C(=O)c3ccccc32)c(C)c1  growth             76.6
4  Cc1cccc2c(=O)c3c(sc12)c(NCCCNCCO)nc1ccccc13  growth             91.2
5   CN1CCN(c2nc(Nc3ccc(O)cc3)nc3ccccc23)CC1  growth             76.8

stdin: // query growth value for entry Cn1cc(-c2ccc3ncc(-c4ccc(CC(=O)Nc5cc(C(C)(C)C)no5)cc4)nc3c2)cn1
stdout: 38.1

stdin: // query growth value for entry O=C(/C=C/c1ccccc1)c1ccc(Nc2nc(NCCO)nc(Nc3ccc(Cl)cc3)n2)cc1
stdout: 95.4

stdin: // query growth value for entry O=C(Nc1ccc(Cl)cc1F)c1cc(Br)ccc1O
stdout: -16.3

stdin: // query growth value for entry CC1CCCCN1CCCNC(=O)c1ccc2c(c1)sc1nc(-c3ccc(F)cc3)cn12 (stereo unspecified)
stdout: 103

stdin: // query growth value for entry CN1C(=O)N(C)C2C1NN=c1s/c(=C\c3c[nH]c4ccccc34)c(=O)n12 (stereo unspecified)
stdout: 52.5

stdin: // query growth value for entry COC(=O)c1c2c(c(C)[n+]([O-])c1C)C(=O)C(NCc1ccc(Br)cc1)=CC2=O
stdout: 47.1

stdin: // query growth value for entry C=CCN1C(=O)/C(=c2\sc3n(c2=O)NC2C(N=3)N(CC)C(=O)N2CC)c2ccccc21 (stereo unspecified)
stdout: 65.9

stdin: // query growth value for entry CCOC(=O)C1(C(=O)OCC)N=C(c2ccccc2)C=C1c1ccccc1
stdout: 82.8

stdin: // query growth value for entry Cc1cc2c(c(C)c1Cl)C(=O)/C(=C/c1ccco1)O2
stdout: 102

stdin: // query growth value for entry Cc1ccc(OCCCCCCNCCO)c(C)c1
stdout: 2.48

stdin: // query growth value for entry O=C(N=Nc1c(O)[nH]c2ccccc12)c1oc2ccccc2c1CN1CCN(c2ccccc2)CC1
stdout: 72.9

stdin: // query growth value for entry Cc1ccc(Cc2cnc(NC(=O)CN3C(=O)/C(=C\c4ccccc4)SC3=S)s2)cc1
stdout: 106

stdin: // query growth value for entry COc1nc2c(c(=O)n1C)N=C1c3ccccc3C(=O)C1C(c1ccccc1)N2 (stereo unspecified)
stdout: 81.2

stdin: // query growth value for entry Nc1no[n+]([O-])c1-c1nnc2c(n1)-c1ccccc1C2=O
stdout: 86.9

stdin: // query growth value for entry O=C(NN1C(=O)CSC1c1ccc(Cl)cc1)c1[nH]c2ccc(F)cc2c1-c1ccccc1 (stereo unspecified)
stdout: 49.3

stdin: // query growth value for entry CCCCNc1nc(NC(C)(C)C)nc(NC(C)(C)C)n1
stdout: 64.1

----------
test system: DU-145 prostate; experiment: NCI-60 one-dose screen, 48 h; conditions: 10 µM unless noted
This is part of a sample that, as a whole, favours compounds with a hit. Of some 83,000 tested, about 20% had one in any assay. Active and inactive are the calls of the source. How the source made its calls: active means growth percent below 10; inactive means the rest.
Respond using exactly one of the listed classes: active, inactive

> print(dat)
                                   compound  qualitative.label
1  FC(F)(F)c1cccc(Nc2nc3ccccc3nc2Nc2cccc(C(F)(F)F)c2)c1             active
2     O=c1oc2ccc(Cl)cc2c(=O)n1-c1ccc(I)cc1F           inactive
3  Oc1[nH]c2ccccc2c1N=Nc1nnc2n1N=C(c1ccccc1)CS2           inactive
4  COc1ccc(/C=C2\N=C(c3ccccc3)N(c3ccc(-c4nc5ccc(C)cc5s4)cc3)C2=O)cc1           inactive
5  C=C1C(=O)O[C@H]2[C@H]1CC/C(COC(=O)/C=C\C(=O)O)=C\CC[C@@]1(C)O[C@@H]21           inactive
6  NCCOc1ccccc1/C=C1\c2ccccc2-c2ccc([N+](=O)[O-])cc21             active
7  COc1nc2c(c(=O)n1C)N=C1c3ccccc3C(=O)C1C(c1ccccc1)N2 (stereo not drawn)           inactive

Lab note: next compound to report on.
stdin: Just curious, what result did COc1ccc(C2Nc3nc(OC)n(C)c(=O)c3N=C3c4ccccc4C(=O)C32)cc1 (stereo not drawn) get here?
stdout: inactive

----------
tested on: HCT-15 colon; test: NCI-60 one-dose screen, 48 h (100 = growth as untreated, 0 = no growth, -100 = all killed); conditions: 10 µM unless noted
The panel holds about 83,000 compounds, 20% with a hit somewhere; the sample as a whole holds those more often.
1.0 if growth is below 40%. 0.0 if not; exact matches included in 0.0.

Worked cases, answers included:
Molecule	Target of assay	Qualitative label
CCOC(=O)c1cc2c(n1Cc1cccc(OC)c1)-c1oncc1CCC2	HCT-15 colon	1.0
CCN(CCO)CCNc1ccc(C)c2sc3cc(Cl)ccc3c(=O)c12	HCT-15 colon	1.0
COc1ccc(-c2c(-c3ccc(OC)c(O)c3)cnc3ncnn23)cc1	HCT-15 colon	0.0

Lab note: next molecule to report on.
stdin: I'd appreciate it if you could check whether NS(=O)(=O)c1ccc(CCN=C=S)cc1 has growth smaller than 40%.
stdout: 1.0

----------
Test system: SF-539 CNS
Test: NCI-60 one-dose screen, 48 h (100 = growth as untreated, 0 = no growth, -100 = all killed)
Settings: 10 µM unless noted
Procedure: Cells are grown in 96 well plates and exposed to the test compound for 48 hours. Compounds are tested at a single concentration, which is 10^-5 M for most compounds. The reported endpoint is percent growth (GI% or GIPRCNT), where numbers from 0 - 100% represent growth inhibition, and numbers from -100% - 0 represent cell death. For example, a value of 40 represents 60% growth inhibition. A value of 0 means no net growth occurred over the course of the experiment. […]
This is part of a sample that, as a whole, favours compounds with a hit. Of some 83,000 tested, about 20% had one in any assay.
Metric: growth (%)
Please reply with the bare figure in % and do not write the unit itself.

Here's what some known entries look like.
> print(dat)
                                   molecule  metric  display.unit  endpoint.result
1   NCCOc1ncccc1/C=C1\c2ccccc2-c2ccc(F)cc21  growth             %             11.5
2  O=C(/C=C/c1ccc(C(F)(F)F)cc1)c1ccc(Nc2nc(NCCO)nc(N3CCOCC3)n2)cc1  growth             %             50.6
3  NCCNc1nc2ccc(F)cc2c2c(=O)c3cc(F)ccc3sc12  growth             %             73.6

In the following, a different molecule is considered.
stdin: // query growth value for entry COc1cc(C2CC(c3ccc(Nc4nc(NCCO)nc(N5CCOCC5)n4)cc3)=NN2c2cc(Cl)cc(Cl)c2)cc(OC)c1OC (centres undefined)
stdout: 41.4

----------
Test system: NCI-H522 lung
Test: NCI-60 one-dose screen, 48 h (100 = growth as untreated, 0 = no growth, -100 = all killed)
Conditions: 10 µM unless noted
Procedure: Growth inhibition of the NCI-H522 human Non-Small Cell Lung tumor cell line is measured as a screen for anti-cancer activity. Cells are grown in 96 well plates and exposed to the test compound for 48 hours. Compounds are tested at a single concentration, which is 10^-5 M for most compounds. The reported endpoint is percent growth (GI% or GIPRCNT), where numbers from 0 - 100% represent growth inhibition, and numbers from -100% - 0 represent cell death. […]
About 83,000 compounds went through this panel and 20% of them were active in at least one assay; those are over-represented in the sample as a whole.
Label 1.0 when growth >= 60%; otherwise 0.0.

Worked cases, answers included:
Compound	Target of assay	Qualitative label
O=C(c1nc2ccccc2[nH]1)C1C(c2ccc([N+](=O)[O-])cc2)C2CC3CCCCC3N2[C@@]12C(=O)Nc1cc(Cl)ccc12 (some centres not stated)	NCI-H522 lung	0.0
Cc1ccc(OCCCCCCNCCO)c(C)c1	NCI-H522 lung	0.0

stdin: Evaluate COc1cc2c(cc1OC)C(=O)C(CC1CCN(C(=O)Nc3ccc(C)cc3)CC1)C2 (configuration not stated) : growth at minimum 60%?
stdout: 1.0

stdin: Evaluate CC(=O)c1ccc(Cc2ccc(C(C)=O)s2)s1 : growth at minimum 60%?
stdout: 1.0

stdin: Evaluate O=C(Nc1nc2c(s1)CCc1c-2c(Br)n(Cc2ccccc2)c1Br)c1ccccc1 : growth at minimum 60%?
stdout: 1.0

stdin: Evaluate CC[C@]1(O)C[C@@H]2CN(CCc3c([nH]c4ccccc34)[C@@](C(=O)OC)(c3cc4c(cc3OC)N(C)[C@H]3[C@@](O)(C(=O)OC)[C@H](OC(=O)CCCBr)[C@]5(CC)C=CCN6CC[C@]43[C@@H]65)C2)C1 : growth at minimum 60%?
stdout: 0.0

stdin: Evaluate COc1cc(/C=C2\CCC/C(=C\c3cc(CN4CCCCC4)c(O)c(OC)c3)C2=O)cc(CN2CCCCC2)c1O : growth at minimum 60%?
stdout: 1.0

stdin: Evaluate Cn1c(/C=C(\C#N)c2ccccc2)nc2c(N3CCOCC3)nc(Cl)nc21 : growth at minimum 60%?
stdout: 0.0
